# Assay method text: AUC(0 to t) in ICR mouse at 50 mg/kg, po measured upto 24 hrs by LC/MS analysis
# Assay type: ADME, organism-based
# Design: dose 50 mg/kg, time < 24 hrs, route po
# Condition notes: in vivo
Recorded endpoint: AUC(0-t) at 24 h

// query Entry under review: "Cl.Cn1ncc(Br)c1-c1ccc(C(=O)N[C@@H]2CNCC[C@H]2c2ccc(F)c(F)c2)cc1C1CC1" . Reported AUC(0-t) at 24 h?
// result 27600 ng·h/mL

====

// endpoint IC50 / system RAC-alpha serine/threonine-protein kinase (Homo sapiens)
Supply the numeric figure in nM, leaving out any unit text.

Smiles notation | Assay target | IC50 [nM]
Cc1cc(C(=O)N[C@@H]2CNCC[C@H]2c2ccc(F)c(F)c2)ccc1-c1c(Cl)cnn1C.Cl | RAC-alpha serine/threonine-protein kinase (Homo sapiens) | 299

// query Entry under review: "CCCc1cc(C(=O)N[C@@H]2CNCC[C@H]2c2ccc(F)c(F)c2)ccc1-c1c(Cl)cnn1C.Cl" . Reported IC50?
// result 245

// query Entry under review: "Cl.Cn1ncc(Br)c1-c1ccc(C(=O)N[C@@H]2CNCC[C@H]2c2ccc(F)c(F)c2)cc1C1CC1" . Reported IC50?
// result 434

// query Entry under review: "Cl.Cn1nccc1-c1ccc(C(=O)N[C@@H]2CNCC[C@H]2c2ccc(F)c(F)c2)cc1C1CC1" . Reported IC50?
// result 157

// query Entry under review: "Cn1ncc(Br)c1-c1ccc2c(c1)CN([C@@H]1CNCC[C@H]1c1ccc(F)c(F)c1)C2=O" . Reported IC50?
// result 1.6

// query Entry under review: "CC(C)c1cc(C(=O)N[C@@H]2CNCC[C@H]2c2ccc(F)c(F)c2)ccc1-c1c(Cl)cnn1C.Cl" . Reported IC50?
// result 69.3

// query Entry under review: "Cc1cc(C(=O)N[C@@H]2CNCC[C@H]2c2ccc(F)c(F)c2)ccc1-c1ccnn1C.Cl" . Reported IC50?
// result 102

// query Entry under review: "Cl.Cn1ncc(Cl)c1-c1ccc(C(=O)N[C@@H]2CNCC[C@H]2c2ccc(F)c(F)c2)cc1C1CC1" . Reported IC50?
// result 143

// query Entry under review: "Cc1cc(C(=O)N[C@@H]2CNCC[C@H]2c2ccc(F)c(F)c2)ccc1-c1c(Br)cnn1C.Cl" . Reported IC50?
// result 341

====

# Assay method text: Half-life in ICR mouse at 50 mg/kg, po measured upto 24 hrs by LC/MS analysis
# Format: ADME, organism-based
# Condition notes: in vivo
Recorded endpoint: half-life (h)
Supply the numeric figure in h, leaving out any unit text.

// query Entry under review: "Cl.Cn1ncc(Br)c1-c1ccc(C(=O)N[C@@H]2CNCC[C@H]2c2ccc(F)c(F)c2)cc1C1CC1" . Reported half-life?
// result 13.7

====

# Assay target: RAC-alpha serine/threonine-protein kinase (Homo sapiens)
# Sequence (P31749 whole entry): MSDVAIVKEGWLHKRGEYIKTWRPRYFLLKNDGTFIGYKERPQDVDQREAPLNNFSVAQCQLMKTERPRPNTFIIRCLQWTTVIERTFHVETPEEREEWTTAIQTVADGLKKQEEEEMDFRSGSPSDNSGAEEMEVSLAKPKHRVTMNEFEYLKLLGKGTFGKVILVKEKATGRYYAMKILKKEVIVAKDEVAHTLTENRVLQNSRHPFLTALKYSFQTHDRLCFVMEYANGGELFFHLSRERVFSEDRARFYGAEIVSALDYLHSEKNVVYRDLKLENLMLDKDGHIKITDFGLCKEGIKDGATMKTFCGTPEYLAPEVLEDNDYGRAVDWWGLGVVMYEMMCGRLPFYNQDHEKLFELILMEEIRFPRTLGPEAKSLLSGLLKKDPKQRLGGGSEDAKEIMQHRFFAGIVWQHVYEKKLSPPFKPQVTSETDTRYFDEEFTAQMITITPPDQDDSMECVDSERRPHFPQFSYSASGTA
IC50 strictly less than 30 nM = T. Otherwise F.

Completed entries (count: 4):
Smiles notation | Assay target | Category
Cn1nccc1-c1ccc2c(c1)CN([C@@H]1CNCC[C@H]1c1ccc(F)c(F)c1)C2=O | RAC-alpha serine/threonine-protein kinase (Homo sapiens) | T
Cn1ncc(Cl)c1-c1ccc(C(=O)N[C@@H]2CNCC[C@H]2c2ccc(F)c(F)c2)cc1 | RAC-alpha serine/threonine-protein kinase (Homo sapiens) | T
CCCc1cc(C(=O)N[C@@H]2CNCC[C@H]2c2ccc(F)c(F)c2)ccc1-c1c(Br)cnn1C.Cl | RAC-alpha serine/threonine-protein kinase (Homo sapiens) | F
CCCc1cc(C(=O)N[C@@H]2CNCC[C@H]2c2ccc(F)c(F)c2)ccc1-c1ccnn1C.Cl | RAC-alpha serine/threonine-protein kinase (Homo sapiens) | F

// query Does the reported IC50 of "Cl.O=C(N[C@@H]1CNCC[C@H]1c1ccc(F)c(F)c1)c1c(F)cc(-c2ccn[nH]2)cc1Cl" stay below 30 nM?
// result F

// query Does the reported IC50 of "Cl.O=C(N[C@@H]1CNCC[C@H]1c1ccc(F)c(F)c1)c1c(F)cc(-c2ccn[nH]2)cc1F" stay below 30 nM?
// result T

// query Does the reported IC50 of "CC(C)c1cc(C(=O)N[C@@H]2CNCC[C@H]2c2ccc(F)c(F)c2)ccc1-c1c(Br)cnn1C.Cl" stay below 30 nM?
// result F

// query Does the reported IC50 of "CC(C)c1cc(C(=O)N[C@@H]2CNCC[C@H]2c2ccc(F)c(F)c2)ccc1-c1ccnn1C.Cl" stay below 30 nM?
// result F

====

# Assay method text: Tmax in ICR mouse at 50 mg/kg, po measured upto 24 hrs by LC/MS analysis
# Type: ADME, organism-based
# Condition notes: in vivo
Recorded endpoint: Tmax
The number alone won't do; follow it with the unit.

// query Entry under review: "Cl.Cn1ncc(Br)c1-c1ccc(C(=O)N[C@@H]2CNCC[C@H]2c2ccc(F)c(F)c2)cc1C1CC1" . Reported Tmax?
// result 4 h

====

# Assay method text: Cmax in ICR mouse at 50 mg/kg, po measured upto 24 hrs by LC/MS analysis
# Type: ADME, organism-based
# Set-up: dose 50 mg/kg, time < 24 hrs, route po
# Condition notes: in vivo
Recorded endpoint: Cmax

// query Entry under review: "Cl.Cn1ncc(Br)c1-c1ccc(C(=O)N[C@@H]2CNCC[C@H]2c2ccc(F)c(F)c2)cc1C1CC1" . Reported Cmax?
// result 1990 ng/mL
